Listed compounds paired with reported cytotoxicity
protocol-details: viability loss of HPDE-C7K cells – cell-based, fluorescence, HTS, primary screen (AID 431);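 also: 0% = DMSO solvent wells and 100% = doxorubicin-treated wells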
condition-label: HPDE-C7K KRASV12 cells, Alamar Blue viability, 48 h; at 10 µM; stronger effect = higher value
Screen size: about 63,000 compounds; about 1,100 (1.7%) were called active. What follows is part of a selection rich in actives, with near analogues and random picks from the rest. Potency and affinity values are given separately.
Give a bare numeral; the unit % is implied.

| compound | cytotoxicity / % |
| --- | --- |
| Nc1nonc1C(=O)NCCNC(=O)c1ccccc1F | 2.3 |
| COc1cc(S(=O)(=O)n2nnc3ccccc32)c(OC)cc1Cl | 59.1 |
| CC(=O)Nc1cccc(NC(=O)CSc2ncc(-c3ccc(Cl)cc3)n2Cc2ccco2)c1 | 83.5 |
| CCOc1cc(C)c(Cl)cc1S(=O)(=O)n1cnc2ccccc21 | 7.1 |
| CC1(C)CC(=O)C(C=NCC2CCCO2)=C(O)C1 (stereo unspecified) | -19.7 |

Value of measured cytotoxicity for the entry `O=C(NC1CCCCC1)C1CCN(S(=O)(=O)c2cccc3cccnc23)CC1` : -12.2

Value of measured cytotoxicity for the entry `O=C(CCC1CCCC1)Nc1ccon1` : -5.5

Value of measured cytotoxicity for the entry `O=C(CSc1ncc(-c2ccc(F)cc2)n1Cc1ccco1)Nc1ccc2c(c1)OCO2` : 86.3

Value of measured cytotoxicity for the entry `CCOc1cc(C)c(Cl)cc1S(=O)(=O)n1nnc2ccccc21` : 52.2

Value of measured cytotoxicity for the entry `O=C(NCCCN1CCCC1=O)C1CCN(S(=O)(=O)N2CCOCC2)CC1` : -9.6

Value of measured cytotoxicity for the entry Cc1nnc(SCCn2c(N3CCCC(C)C3)nc3c2c(=O)n(C)c(=O)n3C)s1 (stereo unspecified) : 6.4

====

protocol-details: viability loss of HPDE-C7K cells – cell-based, fluorescence, HTS, primary screen (AID 431);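 also: 0% = DMSO solvent wells and 100% = doxorubicin-treated wells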
condition-label: HPDE-C7K KRASV12 cells, Alamar Blue viability, 48 h; at 10 µM; stronger effect = higher value
Hit rate of the full screen: of about 63,000 compounds, about 1,100 (1.7%) were called active. The sample as a whole holds a higher share of actives than the screen did. Potency and affinity values are given separately.
observable: cytotoxicity

Examples from the recorded data:
| compound | recorded-result |
| --- | --- |
| Cc1cc2c(c(=O)n1CCN(C)C)C(c1ccncc1)C(C#N)=C(N)O2 (stereo not drawn) | 20.9% (inactive) |
| COc1ccc(N(CC(=O)N2CCc3ccccc32)S(=O)(=O)c2c(C)noc2C)cc1 | 2% (inactive) |
| O=C(CN(C1CCCCC1)S(=O)(=O)c1ccc(Cl)cc1)NCc1cccnc1 | -28.1% (inactive) |
| O=S(=O)(O)c1nc2ccccc2n1CCOc1ccccc1 | 5.6% (inactive) |
| Cc1n[nH]c(C)c1S(=O)(=O)Nc1ccc2c(c1)OCCO2 | 4.3% (inactive) |

Value of measured cytotoxicity for the entry COc1ccc(S(=O)(=O)C(C#N)c2nc3ccccc3nc2N2CCCCC2)cc1 (stereo not drawn) : 3.2% (inactive)

Value of measured cytotoxicity for the entry `COc1ccccc1CNC(=O)c1ccc(CNc2c(N3CCCC3)c(=O)c2=O)cc1` : 4.2% (inactive)

Value of measured cytotoxicity for the entry `CCOC(=O)Cn1c(C)c(C#N)c2ccccc21` : 8.1% (inactive)

Value of measured cytotoxicity for the entry `Cc1ccc2[nH]c3c(c2c1)CCC3=O` : -12.2% (inactive)

Value of measured cytotoxicity for the entry Cc1cccc(S(=O)(=O)C(C#N)c2nc3ccccc3nc2N2CCCC2)c1 (stereo not drawn) : -13.4% (inactive)
